compounds and their reported composite z-score
ASSAY_TEXT: probe aNOTCH3 binding on compound microarray – biochemical, small-molecule microarray, 635/667 nm fluorescence, primary screen (AID 1120);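 note: probe is a biotin-tagged antibody raised against NOTCH3 rather than NOTCH3 protein; score merges spot fluorescence near 667 nm with spot signal to noise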
CONDITION_DESCRIPTION: higher = more signal
Returns: the value as a bare number; no unit string appended.

Some compounds with recorded composite z-score:
COMPOUND	TEST_VALUE
Cn1c2c(c3ccccc31)C(=O)C1NC2C=CC1(C)C(=O)OCc1ccccc1 (configuration not stated)	-0.242
COCCOC(=O)N1C(=O)[C@@]2(c3cc(C#CC4=CCCCC4)ccc31)[C@H](c1ccc(OCCO)cc1)N1[C@H](c3ccccc3)[C@H](c3ccccc3)OC(=O)[C@H]1[C@@H]2C(=O)Nc1nc2ccccc2s1	0.151
[N-]=[N+]=NCc1ccccc1[C@@H]1OC(c2ccc(OCCCO)cc2)=N[C@]1(Cc1ccccc1N=[N+]=[N-])C(N)=O	0.473

API: the following record is the query input.
Please supply the value of reported composite z-score for the item CO[C@H]1O[C@H](CO)[C@@H](OC(=O)Nc2ccc3c(c2)OCO3)[C@H](OC(=O)Nc2ccc3c(c2)OCO3)[C@H]1OC(=O)Nc1ccc2c(c1)OCO2
0.307
